# Tested on: WEHI 231 cells
# test_summary: TUNEL analysis of Actinomycin D induced apoptosis, flow cytometry
# Assay type: cell-based, murine
# cond: 100 μM inhibitor + ActD, WEHI 231
Peptide text beside a SMILES is read from it. * marks the point of attachment. Cbz = O=C(OCc1ccccc1)*; CH2F = FC*
reported_metric: % non-viable cells (%)

INSERT INTO assay_data (molecule, reported_result) VALUES
  ('COC(=O)CC(NC(=O)C(C)NC(=O)c1ccc2ccccc2n1)C(=O)CF (stereo not drawn) [Inhibitor D^1, Q-Ala-Asp(OMe)-FMK]', 1),
  ('COC(=O)CC(NC(=O)C(CC(C)C)NC(=O)c1ccc2ccccc2n1)C(=O)COc1ccccc1 (stereo not drawn) [Inhibitor J^1, Q-Leu-Asp(OMe)—CH2—OPh]', 3),
  ('COC(=O)CC(NC(=O)C(NC(=O)c1ccc2ccccc2n1)C(C)C)C(=O)COc1c(F)cccc1F (stereo not drawn) [Inhibitor I^1, Q-Val-Asp(OMe)—CH2—OPh]', 2),
  ('COC(=O)CC(NC(=O)C(C)NC(=O)C(NC(=O)OCc1ccccc1)C(C)C)C(=O)COc1c(F)cccc1F (stereo not drawn) [Inhibitor G^1, 2-Val-Ala-Asp(OMe)—CH2—OPh]', 8),
  ('COC(=O)CC(NC(=O)CCNC(=O)c1ccc2ccccc2n1)C(=O)CF (stereo not drawn) [Inhibitor A^1, Q-βAla-Asp(OMe)-FMK]', 9),
  ('COC(=O)CC(NC(=O)C(C)NC(=O)C(NC(=O)OCc1ccccc1)C(C)C)C(=O)CF (stereo not drawn) [Z-VAD-FMK, reference compound] (Cbz-Val-Ala-Asp(OMe)-CH2F; configuration not given here)', 6);
